Test system: MDA-MB-231 breast
Assay protocol: NCI-60 one-dose screen, 48 h (100 = growth as untreated, 0 = no growth, -100 = all killed)
Conditions used: 10 µM unless noted
The panel holds about 83,000 compounds, 20% with a hit somewhere; the sample as a whole holds those more often. Activity calls are given as the source filed them. How the source made its calls: active means growth percent below 10; inactive means the rest.
Measured property: growth

Give the measured growth of O=P([O-])(O)OP(=O)([O-])O.[NH-][C@H]1CCCC[C@@H]1[NH-].[OH-].[OH-].[Pt+4] . 107% (inactive)

Give the measured growth of CC1(C)OC2COC3(C(=O)O)OC(C)(C)OC3C2O1 (centres undefined) . 88.3% (inactive)

Give the measured growth of c1ccc2c(c1)Oc1ccccc1C2C1c2ccccc2Oc2ccccc21 . 93.1% (inactive)

Give the measured growth of O=C(NCCc1c[nH]c2ccccc12)C1Cc2ccccc2CN1C(=O)c1ccco1 (centres undefined) . 96.2% (inactive)

Give the measured growth of COc1cccc2cc(-c3cc4ccccc4[nH]3)/c(=N/C(=S)Nc3ccccc3)oc12 . 61.6% (inactive)

Give the measured growth of NC(=O)c1c(NC(=O)c2ccc3c(c2)OCO3)sc2c1CCC(=O)C2 . -20.5% (active)

Give the measured growth of CCN(CC)CCCC(C)N=c1cc(Nc2cc(=NC(C)CCCN(CC)CC)c3cc(OC)ccc3o2)oc2ccc(OC)cc12 (centres undefined) . -51.7% (active)

Give the measured growth of CS(=O)(=O)N(c1cc(-c2ccc3ncnc(Nc4cccc(Cl)c4)c3c2)cnc1Cl)S(C)(=O)=O . 7.55% (active)

Give the measured growth of COC(=O)CCCCCN=Cc1c(O)c(O)c(C(C)C)c2cc(C)c(-c3c(C)cc4c(C(C)C)c(O)c(O)c(C=NCCCCCC(=O)OC)c4c3O)c(O)c12 . 11.9% (inactive)

Give the measured growth of CCN1C(=O)N(CC)C2C1NN=c1s/c(=C3\C(=O)N(C4CCCC4)c4ccccc43)c(=O)n12 (centres undefined) . 19.7% (inactive)

Give the measured growth of COc1ccccc1CNCCCN1C(=O)c2ccc3c4c(ccc(c24)C1=O)C(=O)N(CCCNCCCCNCCCCN)C3=O . 8.05% (active)

Give the measured growth of COc1cc(OC)c(C(=O)/C=C/c2ccc(C#N)cc2)c(OC)c1 . 22.2% (inactive)

Give the measured growth of Cc1nc2sccn2c1-c1csc(Nc2ccccc2Cl)n1 . 66.5% (inactive)

Give the measured growth of Cc1cccc(-n2c(C)nc3ccc(NC(=O)NCCCl)cc3c2=O)c1 . 111% (inactive)

Give the measured growth of O=C(/C=C/c1ccccc1)n1c(-c2ccc(Cl)cc2)nc2ccccc21 . -26.5% (active)

Give the measured growth of Cc1cc(C(=O)O)c(N)c(C)n1 . 106% (inactive)

Give the measured growth of COc1ccc(C2CC(=O)Nc3c2c(C)nn3-c2nc3ccccc3[nH]2)cc1OC (centres undefined) . 87.1% (inactive)

Give the measured growth of C=CCOc1ccc(/C(O)=C2\C(=O)C(=O)N(c3nccs3)C2c2ccccc2F)cc1 (centres undefined) . 112% (inactive)

Give the measured growth of O=S(=O)(NCCNc1cc(-c2cn(-c3ccccc3)nc2-c2ccccc2)ccn1)c1ccc(F)cc1 . 80.1% (inactive)

* * *

Provide the reported growth of each item.
System: SNB-19 CNS
Assay protocol: NCI-60 one-dose screen, 48 h (100 = growth as untreated, 0 = no growth, -100 = all killed)
Conditions used: 10 µM unless noted
About 83,000 compounds went through this panel and 20% of them were active in at least one assay; those are over-represented in the sample as a whole.
Write down the numeric answer in % and omit the unit.

Tell me reported growth for O=S(=O)(NCCNc1nccc(-c2c(-c3ccccc3)nc3sccn23)n1)c1ccc(O)cc1 , tested with SNB-19 CNS. 56.5

Tell me reported growth for CSc1ccccc1C#C/C=C\C#Cc1ccccc1N1CCCC1=O , tested with SNB-19 CNS. 88.5

Tell me reported growth for COc1cc(-c2cc(/C=C3\CCCCC3=O)[nH]n2)cc(OC)c1OC , tested with SNB-19 CNS. 97.5

Tell me reported growth for Cc1oc2ncnc(Nc3ccccc3)c2c1C(=O)NCCO , tested with SNB-19 CNS. 93.9

Tell me reported growth for NC(C(=O)O)C(O)c1ccc(OCc2ccccc2)c(OCc2ccccc2)c1 (configuration not stated) , tested with SNB-19 CNS. 97.1

Tell me reported growth for COc1ccc(Cn2c(SC)nc(=O)n(Cc3ccc(Cl)cc3)c2=O)cc1 , tested with SNB-19 CNS. 97

Tell me reported growth for CCN(CC)S(=O)(=O)c1ccc2[nH]c(=O)cc(C(=O)Nc3ccc(OC)cc3OC)c2c1 , tested with SNB-19 CNS. 104

Tell me reported growth for NS(=O)(=O)c1ccc(CN2C(=O)c3cccc4cccc(c34)C2=O)cc1 , tested with SNB-19 CNS. 100

Tell me reported growth for CCCCCC(=O)OCc1ccccc1 , tested with SNB-19 CNS. 105

Tell me reported growth for Cn1cc(C=O)c2ccccc21 , tested with SNB-19 CNS. 100

Tell me reported growth for COc1ccc(-c2nc(-c3ccccc3)c(-c3ccccc3)n2C2CC2)cc1OC1CCCCC1 , tested with SNB-19 CNS. 83.7

Tell me reported growth for c1ccc2c(c1)Oc1ccccc1C2C1c2ccccc2Oc2ccccc21 , tested with SNB-19 CNS. 97.1

Tell me reported growth for CN(C)C/C=C/C(=O)Nc1cc2c(Nc3ccc(F)c(Cl)c3F)ncnc2cc1OCCOC(F)F , tested with SNB-19 CNS. 36.6

Tell me reported growth for O=C1Nc2cc(Cl)ccc2/C1=C/c1ccc(N2CCOCC2)s1 , tested with SNB-19 CNS. 86.6

Tell me reported growth for COc1ccc(C2SCC(=O)N2NC(=O)c2ccc(NC(=O)c3ccccn3)cc2)cc1OC (configuration not stated) , tested with SNB-19 CNS. 95.5

Tell me reported growth for CCN(Cc1ccc(CN(CC)C(=O)C(Br)Br)cc1)C(=O)C(Br)Br , tested with SNB-19 CNS. 60.8

Tell me reported growth for COC(=O)c1ccc2nc(-c3cc4ccccc4n3C)n(CCCCOc3cc4c(cc3OC)C(=O)N3CCC[C@H]3C=N4)c2c1 , tested with SNB-19 CNS. 11.3

Tell me reported growth for COc1cc(Cn2c(SCCC(=O)Nc3ccc(F)cc3)nc3ccccc3c2=O)cc(OC)c1OC , tested with SNB-19 CNS. 80.4

Tell me reported growth for Nc1c(C(=O)Nc2cccc(Cl)c2Cl)sc2nc3c(cc12)C(=O)CCC3 , tested with SNB-19 CNS. 70.2

Tell me reported growth for OCc1c(-c2ccccc2)nc2sccn12 , tested with SNB-19 CNS. 85.5

Tell me reported growth for Nc1c(C(=O)Nc2cccc(C(F)(F)F)c2)sc2nc3c(cc12)CCCCCC3 , tested with SNB-19 CNS. 25.9

Tell me reported growth for O=C(CN1CCOCC1)Nc1ccc(-c2nc3ccccc3s2)cc1 , tested with SNB-19 CNS. 101

* * *

Tested on: SF-539 CNS
Assay protocol: NCI-60 one-dose screen, 48 h
Conditions used: 10 µM unless noted
About 83,000 compounds went through this panel and 20% of them were active in at least one assay; those are over-represented in the sample as a whole. The source made the active and inactive calls. Rule for the calls: active = growth percent below 10; inactive = the rest.
Respond only with the outcome that fits, drawn from true (1) (active), false (0) (inactive)

Hi, do you know how O=C1N=C(c2c(-c3[nH]c(=O)c4ccc(Br)cc4c3O)c(O)c3ccccc3c2O)C(=O)c2cc(Br)ccc21 came out in this test? true (1)

Hi, do you know how Clc1ccc(/C=C/c2nc(N3CCOCC3)c3nc(Cl)c(Cl)cc3n2)cc1 came out in this test? false (0)

Hi, do you know how c1ccc([P+](CCC[P+](c2ccccc2)(c2ccccc2)c2ccccc2)(c2ccccc2)c2ccccc2)cc1 came out in this test? false (0)

Hi, do you know how COC(=O)C(CC(=O)c1ccc(-c2ccccc2)cc1)c1ccccc1 (configuration not stated) came out in this test? false (0)

Hi, do you know how CN1CCN(CCCOc2ccc3nc(Nc4ccc(C(F)(F)F)c(Cl)c4)ccc3c2)CC1 came out in this test? true (1)

Hi, do you know how O=c1[nH]c2ccccc2cc1-c1nnc(Cc2ccccc2)o1 came out in this test? false (0)

Hi, do you know how O=C(Nc1ccccc1)OCC1OCOC(COC(=O)Nc2ccccc2)C1OC(=O)Nc1ccccc1 (configuration not stated) came out in this test? false (0)

Hi, do you know how CCN(CC)P(=O)(N(CC)CC)N(CCCSC/C=C(\C)CC/C=C(\C)CCC=C(C)C)CCCN1CCN(C)CC1 came out in this test? false (0)

Hi, do you know how COc1ccc(C(=O)c2cc(OC)c(OC)c(OC)c2)cc1/C=C/C(=O)c1ccc2c(c1)OCO2 came out in this test? true (1)

Hi, do you know how CCNc1nc(N2CC(=O)Nc3cc(OC)ccc32)c2ccccc2n1 came out in this test? true (1)

Hi, do you know how O=C(CNC(=O)c1cccc2ccccc12)Nc1ccccc1Oc1ccccc1 came out in this test? true (1)

Hi, do you know how CC[C@]1(O)C[C@@H]2CN(Cc3c([nH]c4ccccc34)[C@@](C(=O)OC)(c3cc4c(cc3OC)N(C)[C@H]3[C@@](O)(C(=O)OC)[C@H](OC(C)=O)[C@]5(CC)[C@@H]6C[C@@H]6CN6CC[C@]43[C@@H]65)C2)C1 came out in this test? true (1)

Hi, do you know how CCCCCCOc1ccc(C2(Cl)c3ccccc3N(C)c3ccccc32)cc1 came out in this test? false (0)

Hi, do you know how CCN(CC)CCC(=O)c1cccc2ccccc12 came out in this test? false (0)

Hi, do you know how CCN1C(=O)N(CC)C2C1NN=c1s/c(=C3\C(=O)N(C4CCCC4)c4ccccc43)c(=O)n12 (configuration not stated) came out in this test? true (1)

Hi, do you know how O=S(=O)(NCCCNc1cc(-c2cn(-c3ccccc3)nc2-c2cccc(O)c2)ccn1)c1ccc(Br)cc1 came out in this test? false (0)

Hi, do you know how O=S=Nc1ccc([N+](=O)[O-])cc1 came out in this test? false (0)

Hi, do you know how CCC(=O)Oc1cc(/C=C/C(=O)O[C@H]2C[C@H]3CN4CCc5c([nH]c6cc(OC)ccc56)[C@@H]4C[C@@H]3[C@@H](C(=O)OC)[C@@H]2OC)ccc1OC came out in this test? false (0)

Hi, do you know how CN(C)c1ccc(-c2ccc(-c3ccc(C(=N)N)cn3)o2)cc1 came out in this test? true (1)

Hi, do you know how COc1ccc(-c2nnc(COc3ccc(NC(=O)Nc4ccc(Cl)c(C(F)(F)F)c4)cc3F)o2)cc1 came out in this test? true (1)

Hi, do you know how COc1cccc(-c2nc3sccn3c2-c2ccnc(NCCCNS(=O)(=O)c3ccccc3)n2)c1 came out in this test? false (0)

Hi, do you know how CC/C=C\C[C@H]1C/C=C2/C(=O)C(Cl)=C[C@@H]2C/C=C\CCCC(=O)O1 came out in this test? true (1)

Hi, do you know how c1cncc(CNc2ccccc2-c2nnc(Nc3ccc4c(c3)OCCO4)o2)c1 came out in this test? true (1)

Hi, do you know how COc1cc(C(=O)/C=C/c2cc(C(=O)c3cc(OC)c(OC)c(OC)c3)ccc2OC)ccc1N came out in this test? true (1)

Hi, do you know how COc1cc(OC)cc(-c2n[nH]nc2-c2ccc3c(c2)OCO3)c1 came out in this test? true (1)

Hi, do you know how NS(=O)(=O)c1ccc(CN2C(=O)c3cccc4cccc(c34)C2=O)cc1 came out in this test? false (0)

Hi, do you know how CCC(C)NCC(=O)O (configuration not stated) came out in this test? false (0)

Hi, do you know how COC(=O)[C@H]1[C@H](OC)[C@@H](OC(=O)/C=C/c2ccncc2)CC2CN3CCc4c([nH]c5cc(OC)ccc45)[C@@H]3C[C@@H]21 (some centres not stated) came out in this test? false (0)

Hi, do you know how O=C(Nc1ccc(F)c(Cl)c1)c1n[nH]c(=O)c2ccccc12 came out in this test? false (0)

Hi, do you know how CCN1C(=O)N(CC)C2C1NN=c1s/c(=C\c3ccccn3)c(=O)n12 (configuration not stated) came out in this test? true (1)

Hi, do you know how CC(=O)N1Cc2ccccc2C(C)Cc2cc(Cl)ccc21 (configuration not stated) came out in this test? false (0)

Hi, do you know how CN1C(=O)[C@H]2c3c1cccc3[C@@]13NC(=O)O[C@H]1[C@H](CCC3(C)C)C2(C)C came out in this test? false (0)

Hi, do you know how CCCCCCCCCCCCCCCCCCOc1cccc(CCOP(=O)(O)OCC[N+](C)(C)C)c1 came out in this test? false (0)

Hi, do you know how COc1cc(NC(=O)CSc2nc3ccc(C)cc3c(=O)n2-c2ccccc2)cc(OC)c1OC came out in this test? false (0)

Hi, do you know how O=C(O)C(Cc1ccccc1)N1C(=O)/C(=C/C(Cl)=C/c2ccc([N+](=O)[O-])cc2)SC1=S (configuration not stated) came out in this test? false (0)

Hi, do you know how Cc1ccnc2nc(C(=O)OCC(=O)Nc3ccc(-c4ccccc4)cc3)nn12 came out in this test? false (0)

Hi, do you know how COc1ccc(/C=C/C(=O)OCC(=O)NNC(=O)c2ccccc2)cc1OC came out in this test? false (0)
